# subject of test: UniProtKB P35372
# Sequence (P35372 whole entry): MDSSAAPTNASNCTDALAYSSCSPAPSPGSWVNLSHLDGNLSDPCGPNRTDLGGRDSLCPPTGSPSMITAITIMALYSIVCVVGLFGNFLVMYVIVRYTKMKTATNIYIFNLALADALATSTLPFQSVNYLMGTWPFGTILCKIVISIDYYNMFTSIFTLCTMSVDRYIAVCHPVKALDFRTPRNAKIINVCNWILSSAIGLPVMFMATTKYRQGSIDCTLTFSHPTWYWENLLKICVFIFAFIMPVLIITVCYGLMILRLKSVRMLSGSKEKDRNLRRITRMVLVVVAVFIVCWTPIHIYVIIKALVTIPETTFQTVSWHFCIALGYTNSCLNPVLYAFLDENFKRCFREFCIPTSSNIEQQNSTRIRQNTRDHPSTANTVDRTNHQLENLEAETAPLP
# assay protocol: cell-based
# Assay type: cell-based
# Design: expressed in transfected cells; HEK293-Glo20F cells (cAMP)
# measurement setup: Table 3a; HEK293-Glo20F-hMOPr cells; read-out: MOPr (cAMP) EC50
pEC50: −log10 of the molar value. Starred links: 1 amine or outer side, 2 acyl side, 3 side chain; linkers in the order of their positions; H or OH if unused. Non-standard residues stand in square brackets, D forms with d. Residues, ends and D or L forms follow the SMILES beside them. *: point of attachment. X1 = O=C1[C@@H](N[*:1])Cc2ccccc2CN1CCC(=O)[*:2]; Dmt = Cc1cc(O)cc(C)c1C[C@H](N)C(=O)O; X2 = c1ccc2[nH]c(*)nc2c1

molecule	pEC50
Cc1cc(O)cc(C)c1C[C@H](N)C(=O)N[C@H](CCCNC(=N)N)C(=O)N[C@H]1Cc2ccccc2CN(CCC(=O)N[C@@H](CCCCNc2nc3ccccc3[nH]2)C(=O)N[C@@H](Cc2ccccc2)C(N)=O)C1=O [KGFF14, H-Dmt-D-Arg-Aba-β-Ala-Lys(Bim)-Phe-NH2] (H-[Dmt][dR][X1]K(X2)F-NH2)	8.23
Cc1cc(O)cc(C)c1C[C@H](N)C(=O)N[C@H](CCCNC(=N)N)C(=O)N[C@@H](Cc1ccccc1)C(=O)N[C@@H](CCCN)C(=O)N[C@@H](Cc1ccccc1)C(N)=O [KGFF05, H-Dmt-D-Arg-Phe-Orn-Phe-NH2] (HELM PEPTIDE1{[Cc1cc(O)cc(C)c1C[C@H](N)C(=O)[*:2]].[dR].F.[Orn].F.[am]}$$$$V2.0)	7.23
Cc1cc(O)cc(C)c1C[C@H](N)C(=O)N[C@H](CCCNC(=N)N)C(=O)N[C@H]1Cc2ccccc2CN(CC(=O)N[C@@H](CCCNC(=N)N)C(=O)N[C@@H](Cc2ccccc2)C(N)=O)C1=O	8.62
